Test system: SK-MEL-2 melanoma
Assay: NCI tumour cell line growth inhibition, 48 h
MEASUREMENT TYPE: GI50

>  <COMPOUND>
CCN(CC)c1ccc2nc3c4ccccc4c(=NC(=O)c4ccccc4-c4c5ccc(N(CC)CC)cc5[o+]c5cc(N(CC)CC)ccc45)cc-3oc2c1

>  <VALUE REPORTED>
3.4 µM

$$$$
>  <COMPOUND>
CC(C)N(C[C@H]1O[C@@H](n2cnc3c(N)ncnc32)[C@H](O)[C@@H]1O)C1CC(CCc2nc3ccc(C(C)(C)C)cc3[nH]2)C1 (stereo partly drawn)

>  <VALUE REPORTED>
> 69 µM

$$$$
>  <COMPOUND>
CCNCCNc1cc(-c2cccc(C(F)(F)F)c2)c(C#N)c2nc3ccccc3n12

>  <VALUE REPORTED>
1.87 µM

$$$$

* * *

Test system: RPMI-8226 leukemia
Assay: NCI tumour cell line growth inhibition, 48 h
MEASUREMENT TYPE: TGI

>  <MOLECULE>
O=C1C=C(Nc2ccccc2C(=O)CC(=O)C(=O)Nc2ccc(Cl)c(Cl)c2)c2ccccc2C1=O

>  <MEASUREMENT TYPE>
TGI

>  <VALUE REPORTED>
> 100 µM

$$$$
>  <MOLECULE>
COc1cccc(-c2cc(=O)c3cccnc3[nH]2)c1

>  <MEASUREMENT TYPE>
TGI

>  <VALUE REPORTED>
> 100 µM

$$$$
>  <MOLECULE>
C=C1C(=O)OC2/C=C(\C)CC(O)/C=C(/CO)CC(OC(=O)/C(C)=C/C)C12 (stereo not given)

>  <MEASUREMENT TYPE>
TGI

>  <VALUE REPORTED>
17.4 µM

$$$$
>  <MOLECULE>
CC12C(=O)N(CCN)C(=O)C1C1c3ccccc3C2c2ccccc21 (stereo not given)

>  <MEASUREMENT TYPE>
TGI

>  <VALUE REPORTED>
> 100 µM

$$$$
>  <MOLECULE>
O=C1c2ccccc2C(=O)c2c(NC(=O)c3ccc4c5c(ncnc35)-c3ccccc3C4=O)cccc21

>  <MEASUREMENT TYPE>
TGI

>  <VALUE REPORTED>
> 100 µM

$$$$
>  <MOLECULE>
CO[C@H](c1ccccc1)[C@H](C)N(C)c1ccc2ccccc2c1C1=NC(C)(C)CO1

>  <MEASUREMENT TYPE>
TGI

>  <VALUE REPORTED>
53.2 µM

$$$$
>  <MOLECULE>
CCCc1ccc(OCC(=O)N/N=C/c2c(-c3ccccc3)[nH]c3ccccc23)cc1

>  <MEASUREMENT TYPE>
TGI

>  <VALUE REPORTED>
30.7 µM

$$$$
>  <MOLECULE>
CC1CC(NN(C)C)C2(C(N)=O)C(N)=NC(=O)C12C#N (stereo not given)

>  <MEASUREMENT TYPE>
TGI

>  <VALUE REPORTED>
> 100 µM

$$$$
>  <MOLECULE>
COc1ccc(-n2c(=O)n(C)c(=O)n2-c2c(C)c(C)c(C)c(C)c2C)cc1

>  <MEASUREMENT TYPE>
TGI

>  <VALUE REPORTED>
> 100 µM

$$$$
>  <MOLECULE>
C[C@H](O)C(=O)SC[C@H](NC(=O)CC[C@@H](N)C(=O)O)C(=O)NCC(=O)O

>  <MEASUREMENT TYPE>
TGI

>  <VALUE REPORTED>
> 100 µM

$$$$
>  <MOLECULE>
CCS/C(Nc1ccccc1)=C(\C#N)C(=O)N/N=C/c1ccc(Cl)cc1Cl

>  <MEASUREMENT TYPE>
TGI

>  <VALUE REPORTED>
> 100 µM

$$$$
>  <MOLECULE>
CN1CCN(c2ccc3nc4c(nc3c2C(F)(F)F)C(=O)c2ncccc2C4=O)CC1

>  <MEASUREMENT TYPE>
TGI

>  <VALUE REPORTED>
7.59 µM

$$$$
>  <MOLECULE>
N#CC(c1ccccc1)N(CCc1ccccc1)C(=O)Oc1ccccc1 (stereo not given)

>  <MEASUREMENT TYPE>
TGI

>  <VALUE REPORTED>
> 100 µM

$$$$
>  <MOLECULE>
Cc1cc(=O)[nH]c2c3c(ccc12)OC(C)(C)C=C3

>  <MEASUREMENT TYPE>
TGI

>  <VALUE REPORTED>
> 100 µM

$$$$
>  <MOLECULE>
O=C1CCC(=O)C(C(=O)CCC(=O)Nc2cccc(Cl)c2)C1 (stereo not given)

>  <MEASUREMENT TYPE>
TGI

>  <VALUE REPORTED>
> 100 µM

$$$$
